target entity: human dopamine D2L receptors (long isoform) (Homo sapiens)
Construct: expressed in transfected cells; host or cells: HEK-293 (membranes)
Sequence (P14416 whole entry, canonical isoform): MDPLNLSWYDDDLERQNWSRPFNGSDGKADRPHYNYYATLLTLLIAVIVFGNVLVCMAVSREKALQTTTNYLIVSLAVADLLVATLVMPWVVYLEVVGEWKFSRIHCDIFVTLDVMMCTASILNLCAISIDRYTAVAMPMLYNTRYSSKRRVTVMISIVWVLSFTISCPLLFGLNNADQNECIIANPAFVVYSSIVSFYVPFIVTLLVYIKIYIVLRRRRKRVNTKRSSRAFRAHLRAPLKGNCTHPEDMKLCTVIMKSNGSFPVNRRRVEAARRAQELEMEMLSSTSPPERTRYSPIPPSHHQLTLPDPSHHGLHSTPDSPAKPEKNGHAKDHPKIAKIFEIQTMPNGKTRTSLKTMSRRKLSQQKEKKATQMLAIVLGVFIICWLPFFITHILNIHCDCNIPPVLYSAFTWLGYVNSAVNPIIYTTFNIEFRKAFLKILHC
procedure summary: Dopamine D2L receptor binding, displacement of [125I]-iodospiperone
particulars: Ki(D2L)/Ki(D3); membranes from HEK-293 cells with human D2L and D3 receptors
recorded endpoint: Selectivity vs. D2L
Answers are plain numbers.

Below: 3 compounds and their reported Selectivity vs. D2L.
CCCc1cc(N2CCN(CCCCn3cccc(C)c3=O)CC2)nc(C(C)(C)C)n1 [Example 7]    129
CCCc1cc(N2CCN(CCCCn3cccc(OC)c3=O)CC2)nc(C(C)(C)C)n1 [Example 5]    51
COc1cccn(CCCCN2CCN(c3cc(C(F)(F)F)nc(C(C)(C)C)n3)CC2)c1=O [Example 6]    74

Hi there! I need Selectivity vs. D2L for each item below, if you can.
1. Cc1cccn(CCCCN2CCN(c3cc(C(F)(F)F)nc(C(C)(C)C)n3)CC2)c1=O [Example 11]
2. CCCc1cc(N2CCN(CCCCn3ccc(C)cc3=O)CC2)nc(C(C)(C)C)n1.Cl [Example 3]

Reply |
1: 74; 2: 137

---

These records show pKi for human dopamine D3 receptors (Homo sapiens, UniProt P35462).
Numbers only, as −log10 of the molar value.

CCCc1cc(N2CCN(CCCCn3cccc(OC)c3=O)CC2)nc(C(C)(C)C)n1    8.92

// moving on: another record for pKi
Ask | Any idea what its pKi is? The compound is CCCc1cc(N2CCN(CCCCn3cccc(C)c3=O)CC2)nc(C(C)(C)C)n1
Reply | 8.90
